System: Pseudomonas aeruginosa
Test Method Notes: Inhibition zone diameter against aerobic organism Pseudomonas aeruginosa strain 3350; note: test concentration or dose not given here
Parameter: zone diameter (mm)
Numbers only, in mm.

CC(=O)NCCSC1=C(C(=O)O)N2C(=O)[C@H](C(C)O)[C@H]2C1 (stereo partly specified)    10

Report zone diameter for every entry below.
1. CC(O)[C@H]1C(=O)N2C(C(=O)O)=C(SCCNC3=NCCC3)C[C@H]12 (stereo partly specified)
2. CC(O)[C@H]1C(=O)N2C(C(=O)[O-])=C(SCCNc3cc[n+](C)cc3)C[C@H]12 (stereo partly specified)

[A]
1: 25.5; 2: 24.5

Value sought for every listed molecule: zone diameter.
1. C[C@@H](O)[C@H]1C(=O)N2C(C(=O)O)=C(SCCNC=N)C[C@H]12 [IMIPENEM ANHYDROUS]
2. CC(O)[C@H]1C(=O)N2C(C(=O)[O-])=C(SCCNc3cccc[n+]3C)C[C@H]12 (stereo partly specified)

[A]
1: 31; 2: 17.5

[Q] Give its zone diameter value. Item: CC(O)[C@H]1C(=O)N2C(C(=O)[O-])=C(SCCNc3cc[n+](Cc4ccccc4)cc3)C[C@H]12 (stereo partly specified)
[A] 11.2

These data points were gathered from ChEMBL document CHEMBL1122046.
